This section presents compounds with their documented Efficacy values.
Test target: Bile acid receptor (Homo sapiens) (UniProt Q96RI1)
Sequence (Q96RI1 whole entry, the tested form may be a part): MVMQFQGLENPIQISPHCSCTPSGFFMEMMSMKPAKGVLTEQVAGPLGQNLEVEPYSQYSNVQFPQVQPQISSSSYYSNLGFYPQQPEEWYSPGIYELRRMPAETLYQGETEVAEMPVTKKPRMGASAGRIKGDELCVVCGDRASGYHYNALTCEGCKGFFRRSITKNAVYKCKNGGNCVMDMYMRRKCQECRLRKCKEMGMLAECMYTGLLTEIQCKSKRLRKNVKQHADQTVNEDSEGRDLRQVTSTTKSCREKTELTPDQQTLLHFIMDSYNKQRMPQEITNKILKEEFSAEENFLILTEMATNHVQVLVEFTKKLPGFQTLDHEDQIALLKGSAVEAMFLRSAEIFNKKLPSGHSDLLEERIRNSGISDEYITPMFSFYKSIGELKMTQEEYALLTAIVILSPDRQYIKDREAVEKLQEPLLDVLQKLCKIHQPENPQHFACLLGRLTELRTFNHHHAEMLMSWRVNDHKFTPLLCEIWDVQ
Protocol notes: Agonist activity at GST-tagged FXR LBD (187 to 472 residues) (unknown origin) assessed as FXR interaction with b-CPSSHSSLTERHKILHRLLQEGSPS-COOH by FRET assay relative to GW4064
The reply should contain only the number, in %.

Consider the following illustrative entries.
Compound	Test target	Measure unit	Observed measurement
O=C(O)c1ccc(C2CC2c2ccc(OCc3c(-c4c(Cl)cccc4Cl)noc3C3CC3)cc2Cl)cc1 (racemic)	Bile acid receptor (Homo sapiens) (UniProt Q96RI1)	%	100
O=C(O)c1cncc(N2CC(O)(c3ccc(OCc4c(-c5c(Cl)cccc5Cl)noc4C4CC4)cc3Cl)C2)c1	Bile acid receptor (Homo sapiens) (UniProt Q96RI1)	%	102

Query string: Entry O=C(O)c1cccc([C@H]2C[C@](O)(c3ccc(OCc4c(-c5c(Cl)cccc5Cl)noc4C4CC4)cc3Cl)C2)c1 : reported Efficacy = ?
Result string: 100

Query string: Moving on to the next compound: O=C(O)c1cccc([C@H]2C[C@H](c3ccc(OCc4c(-c5c(Cl)cccc5Cl)noc4C4CC4)cc3Cl)C2)c1
Result string: 100

Query string: Moving on to the next compound: CS(=O)(=O)NC(=O)c1ccc([C@@H]2C[C@H]2c2ccc(OCc3c(-c4c(Cl)cccc4Cl)noc3C3CC3)cc2Cl)cc1
Result string: 94

Query string: Moving on to the next compound: O=C(O)c1ccc([C@@H]2C[C@H]2c2ccc(OCc3c(-c4c(Cl)cccc4Cl)noc3C3CC3)cc2Cl)cc1
Result string: 99

Query string: Moving on to the next compound: O=C(O)c1cccc(C2CC2c2ccc(OCc3c(-c4c(Cl)cccc4Cl)noc3C3CC3)cc2Cl)c1 (racemic)
Result string: 102
